The measurements presented in this section are drawn from ChEMBL document CHEMBL4616681.

- testedOn: Cytochrome P450 11B1, mitochondrial (Homo sapiens, UniProt P15538)
- Sequence (P15538 whole entry): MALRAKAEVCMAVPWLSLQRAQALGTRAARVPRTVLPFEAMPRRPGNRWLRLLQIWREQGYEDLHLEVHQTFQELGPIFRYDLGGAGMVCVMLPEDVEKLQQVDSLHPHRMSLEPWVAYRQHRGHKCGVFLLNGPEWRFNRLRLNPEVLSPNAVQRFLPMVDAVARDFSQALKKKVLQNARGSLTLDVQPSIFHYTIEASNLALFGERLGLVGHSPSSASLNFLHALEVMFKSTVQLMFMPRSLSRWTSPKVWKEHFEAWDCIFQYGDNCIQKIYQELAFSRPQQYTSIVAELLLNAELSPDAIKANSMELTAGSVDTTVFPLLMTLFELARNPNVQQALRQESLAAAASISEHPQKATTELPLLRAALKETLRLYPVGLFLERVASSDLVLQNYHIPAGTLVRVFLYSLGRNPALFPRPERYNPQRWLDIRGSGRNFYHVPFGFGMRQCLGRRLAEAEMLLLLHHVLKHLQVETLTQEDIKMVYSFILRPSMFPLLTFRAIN
- runDescription: Inhibition of human CYP11B1 expressed in human renal leiomyoblastoma cells harboring FDXR/FDX using 1-deoxycortisol as substrate by HTRF assay

- compoundStructureString: "O=C1c2ccc(Cl)cc2C2(CC2)N1c1cccnc1"
  testedOn: "Cytochrome P450 11B1, mitochondrial (Homo sapiens, UniProt P15538)"
  unitText: "µM"
  limitQualifier: "="
  IC50: 4.45
- compoundStructureString: "CC(=O)N[C@@H]1CCCc2c1cncc2N1CCc2cc(Cl)ccc2C1=O"
  testedOn: "Cytochrome P450 11B1, mitochondrial (Homo sapiens, UniProt P15538)"
  unitText: "µM"
  limitQualifier: "="
  IC50: 3.92
- compoundStructureString: "CCC(=O)N[C@@H]1CCCc2c1cncc2N1C(=O)c2ccc(Cl)cc2[C@@H]1C"
  testedOn: "Cytochrome P450 11B1, mitochondrial (Homo sapiens, UniProt P15538)"
  unitText: "µM"
  limitQualifier: "="
  IC50: 0.414
- compoundStructureString: "CCC(=O)N[C@@H]1CCCc2c1cncc2N1C(=O)c2ccc(Cl)cc2[C@H]1CC"
  testedOn: "Cytochrome P450 11B1, mitochondrial (Homo sapiens, UniProt P15538)"
  unitText: "µM"
  limitQualifier: "="
  IC50: 10.2
- compoundStructureString: "CC1(C)c2cc(Cl)ccc2C(=O)N1c1cccnc1"
  testedOn: "Cytochrome P450 11B1, mitochondrial (Homo sapiens, UniProt P15538)"
  unitText: "µM"
  limitQualifier: "="
  IC50: 4.28
- compoundStructureString: "O=C1c2ccccc2CN1c1cccnc1"
  testedOn: "Cytochrome P450 11B1, mitochondrial (Homo sapiens, UniProt P15538)"
  unitText: "µM"
  limitQualifier: ">"
  IC50: 3

###

- runDescription: Solubility of the compound in phosphate buffer at pH 6.5 shaken for 2 hrs followed by overnight incubation
- Type: physicochemical
measure: log10(solubility at 2 h) (log10 of the value in µg/mL)

- compoundStructureString: "CCS(=O)(=O)N1CC(Oc2cncc(N3C(=O)c4ccc(Cl)cc4C3(C)C)c2)C1"
  log10(solubility at 2 h): 1.89
- compoundStructureString: "CC1(C)c2cc(Cl)ccc2C(=O)N1c1cncc(OC2CN(C(=O)c3ncccc3Cl)C2)c1"
  log10(solubility at 2 h): 1.30
- compoundStructureString: "Cn1cc(C(=O)N2CC3(C2)CN(c2cncc(N4C(=O)c5ccc(Cl)cc5C4(C)C)c2)C3)cn1"
  log10(solubility at 2 h): 1.64
- compoundStructureString: "CC1(C)c2cc(Cl)ccc2C(=O)N1c1cncc(N2CCN(S(C)(=O)=O)CC2)c1"
  log10(solubility at 2 h): 1.96
- compoundStructureString: "Cn1cc(C(=O)N2CC(Oc3cncc(N4C(=O)c5ccc(Cl)cc5C4(C)C)c3)C2)cn1"
  log10(solubility at 2 h): 2.49
- compoundStructureString: "CCS(=O)(=O)N1CCC(c2cncc(N3C(=O)c4ccc(Cl)cc4C3(C)C)c2)CC1"
  log10(solubility at 2 h): 1.59
- compoundStructureString: "Cc1ccncc1C(=O)N1CC(Oc2cncc(N3C(=O)c4ccc(Cl)cc4C3(C)C)c2)C1"
  log10(solubility at 2 h): 2.46
